# TARGET OR SYSTEM: SHP2-C SH2
# TEST DETAILS: SH2 binding enrichment of the phosphorylated peptide, bacterial display (enrichment ratio); higher = better substrate or ligand; peptides without Tyr show the background
ENDPOINT NAME: SH2 binding enrichment

Example cases with answers are listed next.
| INPUT SEQUENCE | NUMBER |
| --- | --- |
| QNTVDYYDLYG [PTPN11_Y62_G60V] | 0.502 |
| KNDSIYVVKGN [KIT_Y823_N822I] | 0.707 |
| VDTFWYKFLKP [EPM2A_Y86_R91P] | 0.626 |
| MGGSVYFSFPD [HIKESHI_Y55_YF] | 0.908 |
| HLNLTYRILSF [MMP23B_Y95_F91L] | 0.624 |
| YCRITYDIFPF [INTS13_Y67_M66T] | 0.791 |
| ASNNPYFRDQA [RPGRIP1_Y846] | 0.689 |
| SMEGLYSSTQD [CLIC5_Y111] | 0.446 |
| EEQKKYYNAMK [SCN5A_Y1494] | 0.603 |
| LQLLGYRPVYS [CHST6_Y358] | 0.962 |

(1) FAGRDYSLDEF [MYOF_Y1705_G1701A_YF]
(2) FLLRVYSIFSK [SGCE_Y38_T36R]
(3) DGYIDYAEFAK [MCFD2_Y138]
(4) PSQRPYVYYYS [PTEN_Y174_R173P]
Give the ascending ranking of the items by reported SH2 binding enrichment. As an answer, provide the labels arranged in the order called for.
3, 1, 2, 4

* * *

# TARGET OR SYSTEM: Fes (UniProt P07332)
# Sequence (P07332 whole entry, looked up): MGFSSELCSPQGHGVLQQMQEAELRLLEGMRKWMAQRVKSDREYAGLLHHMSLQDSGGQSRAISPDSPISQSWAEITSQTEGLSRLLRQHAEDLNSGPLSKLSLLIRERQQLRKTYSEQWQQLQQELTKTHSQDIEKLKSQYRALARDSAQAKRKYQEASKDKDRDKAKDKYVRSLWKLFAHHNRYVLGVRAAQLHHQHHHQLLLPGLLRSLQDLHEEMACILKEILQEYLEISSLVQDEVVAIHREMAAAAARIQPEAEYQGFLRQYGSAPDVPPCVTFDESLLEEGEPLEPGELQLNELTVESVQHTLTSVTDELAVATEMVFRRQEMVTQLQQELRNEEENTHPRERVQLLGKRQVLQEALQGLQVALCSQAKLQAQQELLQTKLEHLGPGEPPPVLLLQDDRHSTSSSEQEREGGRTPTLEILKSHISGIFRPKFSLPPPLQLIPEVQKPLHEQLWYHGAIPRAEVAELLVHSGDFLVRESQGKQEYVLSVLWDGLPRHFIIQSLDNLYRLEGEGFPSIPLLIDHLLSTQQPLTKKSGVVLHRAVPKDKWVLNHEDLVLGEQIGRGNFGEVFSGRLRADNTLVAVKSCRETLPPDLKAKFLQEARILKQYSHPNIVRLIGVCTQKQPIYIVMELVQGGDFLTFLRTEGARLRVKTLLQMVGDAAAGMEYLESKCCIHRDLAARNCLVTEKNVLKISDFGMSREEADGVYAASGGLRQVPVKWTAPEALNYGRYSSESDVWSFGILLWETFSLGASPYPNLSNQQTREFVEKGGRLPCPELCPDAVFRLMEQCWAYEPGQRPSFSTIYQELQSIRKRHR
# TEST DETAILS: phosphorylation enrichment, bacterial display (enrichment ratio); higher = better substrate or ligand; peptides without Tyr show the background
ENDPOINT NAME: phosphorylation enrichment
When you answer, write just the number.

Example cases with answers are listed next.
| INPUT SEQUENCE | phosphorylation enrichment |
| --- | --- |
| ILCTVYAFKTR [GRM3_Y754] | 1.49 |
| GQECEYPPTQD [METAP2_Y137] | 1.41 |
| YTGDIYSNSNL [LZTR1_Y141] | 0.707 |
| EQLRAYLEGTC [HLA-C_Y183] | 1.08 |
| IGEGTYGVVYK [CDK2_Y15] | 0.896 |
| ASGKYYAMKIL [AKT3_Y174] | 0.657 |
| PKGIGYGQGAG [CSRP3_Y73] | 0.721 |
| FLLRVYSIFSK [SGCE_Y38_T36R] | 1.02 |

phosphorylation enrichment reading for SHSMKYFDTAV [HLA-C_Y31_R30K] : 0.572

phosphorylation enrichment reading for AASHRYDLGGL [QPRT_Y162] : 0.56

phosphorylation enrichment reading for QNTVDYYDLYG [PTPN11_Y62_G60V] : 1.66

phosphorylation enrichment reading for KEKLCYVALDF [ACTA1_Y220] : 1.17

phosphorylation enrichment reading for ASNNPYFRDQA [RPGRIP1_Y846] : 0.694

phosphorylation enrichment reading for TILEHYRRTHC [MYBPC3_Y1119_V1115I] : 1.08

phosphorylation enrichment reading for LYNQDYPIHCV [GATM_Y227_S231C] : 0.954

phosphorylation enrichment reading for FLNSIYKCRDE [ROS1_Y2227_S2229C] : 0.909

phosphorylation enrichment reading for TDECEYDELIV [TGM1_Y136_Y134C] : 1.13

phosphorylation enrichment reading for GFRVCYTPDSR [PTPRF_Y451_Y450C_YF] : 1.34

phosphorylation enrichment reading for TGQERYRAITS [RAB11B_Y73_A68T] : 0.588

phosphorylation enrichment reading for HKLSFYEFDFE [BTK_Y40_YF] : 1.73

phosphorylation enrichment reading for GQKVAYGGTED [ALDH3A1_Y305_G309E] : 0.939

phosphorylation enrichment reading for IGEVVYQRAAM [GRIN2A_Y502_V506A] : 0.824

phosphorylation enrichment reading for PVGVLYKVKVY [PTS_Y128] : 1.79

phosphorylation enrichment reading for CEQELYSQLVF [WAS_Y102_W97C_YF] : 1.44

phosphorylation enrichment reading for FSLPAFMDRRD [COX4I1_Y38_Y38F] : 0.81

phosphorylation enrichment reading for SSVAGYACLAY [MVD_Y131_A128V] : 0.994

* * *

# TARGET OR SYSTEM: MERTK (UniProt Q12866)
# Sequence (Q12866 whole entry, looked up): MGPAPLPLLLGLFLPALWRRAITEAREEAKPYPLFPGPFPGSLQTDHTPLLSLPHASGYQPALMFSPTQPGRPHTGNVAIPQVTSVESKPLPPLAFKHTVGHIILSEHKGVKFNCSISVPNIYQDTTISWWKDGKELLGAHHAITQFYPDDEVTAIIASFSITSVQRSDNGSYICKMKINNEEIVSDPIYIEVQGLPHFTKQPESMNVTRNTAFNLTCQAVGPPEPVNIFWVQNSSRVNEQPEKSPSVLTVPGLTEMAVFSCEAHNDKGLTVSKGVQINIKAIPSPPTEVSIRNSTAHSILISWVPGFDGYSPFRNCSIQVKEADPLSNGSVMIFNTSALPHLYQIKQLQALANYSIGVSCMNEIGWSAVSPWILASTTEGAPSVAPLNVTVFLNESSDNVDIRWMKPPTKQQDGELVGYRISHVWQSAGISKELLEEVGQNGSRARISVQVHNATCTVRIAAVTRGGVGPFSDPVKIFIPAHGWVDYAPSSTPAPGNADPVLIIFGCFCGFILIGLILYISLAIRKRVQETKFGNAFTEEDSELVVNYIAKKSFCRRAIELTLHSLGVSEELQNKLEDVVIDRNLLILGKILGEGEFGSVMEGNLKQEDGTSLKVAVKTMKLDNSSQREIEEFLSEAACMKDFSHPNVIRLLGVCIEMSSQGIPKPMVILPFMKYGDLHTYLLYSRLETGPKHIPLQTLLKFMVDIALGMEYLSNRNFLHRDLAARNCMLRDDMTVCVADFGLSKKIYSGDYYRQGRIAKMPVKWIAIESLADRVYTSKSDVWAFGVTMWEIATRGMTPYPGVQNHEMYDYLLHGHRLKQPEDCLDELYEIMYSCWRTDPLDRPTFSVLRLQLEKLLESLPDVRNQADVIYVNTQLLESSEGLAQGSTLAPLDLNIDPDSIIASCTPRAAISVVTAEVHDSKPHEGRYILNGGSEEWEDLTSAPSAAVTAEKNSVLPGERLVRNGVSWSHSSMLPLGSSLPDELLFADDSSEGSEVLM
# TEST DETAILS: phosphorylation enrichment, bacterial display (enrichment ratio); higher = better substrate or ligand; peptides without Tyr show the background
The entries below are paired with their reported phosphorylation enrichment.
When you answer, write just the number.

| INPUT SEQUENCE | phosphorylation enrichment |
| --- | --- |
| TGQERYRAITS [RAB11B_Y73_A68T] | 0.337 |
| KVMANYVYKAG [MAML2_Y513_M514V] | 0.361 |
| NHFKRYNLCAE [PTEN_Y68_I67R_YF] | 0.485 |

phosphorylation enrichment reading for RSGNCYLDIRP [FBN1_Y1535] : 0.633

phosphorylation enrichment reading for RVQKRYILDNV [RCN1_Y115_F117L] : 0.367

* * *

# TARGET OR SYSTEM: Jak2 (UniProt O60674)
# Sequence (O60674 whole entry, looked up): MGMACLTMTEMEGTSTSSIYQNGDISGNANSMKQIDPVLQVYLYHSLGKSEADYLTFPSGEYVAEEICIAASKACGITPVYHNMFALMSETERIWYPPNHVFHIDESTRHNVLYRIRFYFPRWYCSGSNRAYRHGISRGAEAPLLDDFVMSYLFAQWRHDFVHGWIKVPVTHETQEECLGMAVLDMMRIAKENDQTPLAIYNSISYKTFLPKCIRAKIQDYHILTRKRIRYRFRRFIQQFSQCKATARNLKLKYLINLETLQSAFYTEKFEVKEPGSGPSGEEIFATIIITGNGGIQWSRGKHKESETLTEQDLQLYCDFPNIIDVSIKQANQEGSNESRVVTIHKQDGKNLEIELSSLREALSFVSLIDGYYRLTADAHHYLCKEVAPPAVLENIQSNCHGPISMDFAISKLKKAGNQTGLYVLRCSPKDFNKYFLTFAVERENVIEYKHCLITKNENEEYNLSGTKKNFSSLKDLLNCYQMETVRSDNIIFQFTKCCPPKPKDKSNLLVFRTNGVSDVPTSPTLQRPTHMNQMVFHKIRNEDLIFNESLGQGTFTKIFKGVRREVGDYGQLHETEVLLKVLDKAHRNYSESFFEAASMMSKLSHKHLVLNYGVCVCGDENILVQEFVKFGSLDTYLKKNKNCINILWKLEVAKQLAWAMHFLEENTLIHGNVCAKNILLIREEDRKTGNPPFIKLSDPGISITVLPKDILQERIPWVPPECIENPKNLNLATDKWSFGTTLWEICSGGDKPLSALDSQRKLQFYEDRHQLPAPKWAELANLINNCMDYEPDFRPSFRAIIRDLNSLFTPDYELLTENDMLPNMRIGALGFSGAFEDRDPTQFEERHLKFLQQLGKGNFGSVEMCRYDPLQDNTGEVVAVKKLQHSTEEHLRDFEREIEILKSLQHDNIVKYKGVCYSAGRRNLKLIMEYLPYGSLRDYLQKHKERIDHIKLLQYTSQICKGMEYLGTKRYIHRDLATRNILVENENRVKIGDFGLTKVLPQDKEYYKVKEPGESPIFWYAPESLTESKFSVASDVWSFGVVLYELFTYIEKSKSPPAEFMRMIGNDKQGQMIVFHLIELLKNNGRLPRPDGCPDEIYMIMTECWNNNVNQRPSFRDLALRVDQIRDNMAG
# TEST DETAILS: phosphorylation enrichment, bacterial display (enrichment ratio); higher = better substrate or ligand; peptides without Tyr show the background
The entries below are paired with their reported phosphorylation enrichment.
When you answer, write just the number.

Example cases with answers are listed next.
| INPUT SEQUENCE | phosphorylation enrichment |
| --- | --- |
| TRSYDYTEGGD [FGF7_Y58_M59T] | 0.876 |
| MCDKEYYSVHN [MET_Y1234_Y1230C] | 1.31 |
| RHPYFYAPELL [ALB_Y174] | 1.13 |
| YRASYYRRGDR [LTK_Y677] | 0.436 |
| KNDSIYVVKGN [KIT_Y823_N822I] | 0.516 |

phosphorylation enrichment reading for LSSLAYSGKDA [FXN_Y205] : 0.75

phosphorylation enrichment reading for VVLVSYVPFSQ [SH2B1_Y624_S627F] : 1.38

* * *

# TARGET OR SYSTEM: FGFR1 (UniProt P11362)
# Sequence (P11362 whole entry, looked up): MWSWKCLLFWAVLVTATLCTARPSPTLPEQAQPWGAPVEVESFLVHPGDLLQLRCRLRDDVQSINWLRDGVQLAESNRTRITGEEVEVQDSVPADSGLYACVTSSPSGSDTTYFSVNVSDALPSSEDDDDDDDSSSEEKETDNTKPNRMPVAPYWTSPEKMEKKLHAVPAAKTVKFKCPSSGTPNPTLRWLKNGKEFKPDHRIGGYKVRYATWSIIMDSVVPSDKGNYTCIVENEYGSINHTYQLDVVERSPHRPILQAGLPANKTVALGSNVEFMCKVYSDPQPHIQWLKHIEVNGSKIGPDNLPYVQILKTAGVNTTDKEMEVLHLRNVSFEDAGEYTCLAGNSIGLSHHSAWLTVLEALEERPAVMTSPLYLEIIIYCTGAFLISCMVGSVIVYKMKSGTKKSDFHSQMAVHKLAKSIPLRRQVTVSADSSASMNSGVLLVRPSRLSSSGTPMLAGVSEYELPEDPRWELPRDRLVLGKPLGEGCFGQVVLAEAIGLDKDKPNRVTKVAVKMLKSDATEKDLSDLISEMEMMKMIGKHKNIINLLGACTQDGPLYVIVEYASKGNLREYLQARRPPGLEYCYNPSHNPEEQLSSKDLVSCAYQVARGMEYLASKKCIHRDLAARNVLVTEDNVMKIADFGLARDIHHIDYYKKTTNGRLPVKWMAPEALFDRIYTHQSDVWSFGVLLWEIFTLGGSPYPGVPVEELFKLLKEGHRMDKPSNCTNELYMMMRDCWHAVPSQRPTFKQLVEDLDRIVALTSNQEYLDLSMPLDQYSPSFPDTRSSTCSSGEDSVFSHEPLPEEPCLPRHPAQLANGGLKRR
# TEST DETAILS: phosphorylation enrichment, bacterial display (enrichment ratio); higher = better substrate or ligand; peptides without Tyr show the background
ENDPOINT NAME: phosphorylation enrichment
When you answer, write just the number.

Example cases with answers are listed next.
| INPUT SEQUENCE | phosphorylation enrichment |
| --- | --- |
| NLVSEYQQFQD [TUBB3_Y422_D417N_YF] | 0.545 |
| AQAGEYGAEAL [HBA1_Y25_H21Q] | 0.557 |
| TISPYYCQSLF [CRYAA_Y48_R49C] | 5.32 |
| RKGGSYTQAAS [HLA-A_Y344] | 0.442 |
| SDVCMYRKNTY [SYNE2_Y570_I574T] | 0.429 |
| EQKKFYNAVKK [SCN5A_Y1495_M1498V_YF] | 0.35 |

The record that follows has no phosphorylation enrichment shown yet.
phosphorylation enrichment reading for RRNEEYCLLAS [ITK_Y198_D202A] : 0.888

* * *

# TARGET OR SYSTEM: c-Src SH2
# TEST DETAILS: SH2 binding enrichment of the phosphorylated peptide, bacterial display (enrichment ratio); higher = better substrate or ligand; peptides without Tyr show the background
ENDPOINT NAME: SH2 binding enrichment

Example cases with answers are listed next.
| INPUT SEQUENCE | NUMBER |
| --- | --- |
| WLQKLYNNFVN [MYO5C_Y526] | 1.28 |
| SLMNQYVNKEF [RAB7A_Y28_K32E] | 0.578 |
| FDNPVCQKTTE [LDLR_Y828_Y828C] | 0.563 |

(1) YRQLQYCPSVE [CTNND2_Y508]
(2) LTMAPYSSVSV [FAM81A_Y24_L29V]
// pick min by SH2 binding enrichment: 1 , 2 // output: label of the selected item
1
(1: 0.472, 2: 3.26)

* * *

# TARGET OR SYSTEM: Fyn (UniProt P06241)
# Sequence (P06241 whole entry, looked up): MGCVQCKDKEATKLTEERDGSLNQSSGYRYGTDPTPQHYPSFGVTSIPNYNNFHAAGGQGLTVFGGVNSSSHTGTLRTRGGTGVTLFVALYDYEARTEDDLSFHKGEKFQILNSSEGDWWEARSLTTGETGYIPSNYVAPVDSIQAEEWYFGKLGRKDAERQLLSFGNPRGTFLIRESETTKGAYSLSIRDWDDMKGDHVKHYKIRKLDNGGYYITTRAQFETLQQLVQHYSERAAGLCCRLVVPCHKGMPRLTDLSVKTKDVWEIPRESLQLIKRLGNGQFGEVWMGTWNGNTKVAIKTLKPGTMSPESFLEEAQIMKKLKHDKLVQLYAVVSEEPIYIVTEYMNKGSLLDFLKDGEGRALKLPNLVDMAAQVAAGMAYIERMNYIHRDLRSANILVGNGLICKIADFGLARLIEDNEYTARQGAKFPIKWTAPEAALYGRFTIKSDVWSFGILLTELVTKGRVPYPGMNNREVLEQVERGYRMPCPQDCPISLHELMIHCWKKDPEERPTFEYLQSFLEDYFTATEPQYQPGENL
# TEST DETAILS: phosphorylation enrichment, bacterial display (enrichment ratio); higher = better substrate or ligand; peptides without Tyr show the background
The entries below are paired with their reported phosphorylation enrichment.
When you answer, write just the number.

Example cases with answers are listed next.
| INPUT SEQUENCE | phosphorylation enrichment |
| --- | --- |
| KYLENYLNRLL [PLD2_Y169] | 0.45 |
| SVVVSYEPPEV [TP53_Y220_P219S] | 0.587 |
| DLSEVYKPRRK [CCDC93_Y176] | 0.579 |
| YRQLQYCPSVE [CTNND2_Y508] | 0.538 |
| NGTVTYAIIAG [CDH23_Y1672_V1675I] | 0.968 |

Note to self: phosphorylation enrichment of RGKDSYETSKL [SPP1_Y225_Q229K] with Fyn (UniProt P06241) was 0.695

Note to self: phosphorylation enrichment of DGYIDYAEFAK [MCFD2_Y138] with Fyn (UniProt P06241) was 0.635
